- target.or.test.system: Ba/F3-EGFR-WT cells (Homo sapiens)
- Sequence (P00533 whole entry, looked up, change not shown): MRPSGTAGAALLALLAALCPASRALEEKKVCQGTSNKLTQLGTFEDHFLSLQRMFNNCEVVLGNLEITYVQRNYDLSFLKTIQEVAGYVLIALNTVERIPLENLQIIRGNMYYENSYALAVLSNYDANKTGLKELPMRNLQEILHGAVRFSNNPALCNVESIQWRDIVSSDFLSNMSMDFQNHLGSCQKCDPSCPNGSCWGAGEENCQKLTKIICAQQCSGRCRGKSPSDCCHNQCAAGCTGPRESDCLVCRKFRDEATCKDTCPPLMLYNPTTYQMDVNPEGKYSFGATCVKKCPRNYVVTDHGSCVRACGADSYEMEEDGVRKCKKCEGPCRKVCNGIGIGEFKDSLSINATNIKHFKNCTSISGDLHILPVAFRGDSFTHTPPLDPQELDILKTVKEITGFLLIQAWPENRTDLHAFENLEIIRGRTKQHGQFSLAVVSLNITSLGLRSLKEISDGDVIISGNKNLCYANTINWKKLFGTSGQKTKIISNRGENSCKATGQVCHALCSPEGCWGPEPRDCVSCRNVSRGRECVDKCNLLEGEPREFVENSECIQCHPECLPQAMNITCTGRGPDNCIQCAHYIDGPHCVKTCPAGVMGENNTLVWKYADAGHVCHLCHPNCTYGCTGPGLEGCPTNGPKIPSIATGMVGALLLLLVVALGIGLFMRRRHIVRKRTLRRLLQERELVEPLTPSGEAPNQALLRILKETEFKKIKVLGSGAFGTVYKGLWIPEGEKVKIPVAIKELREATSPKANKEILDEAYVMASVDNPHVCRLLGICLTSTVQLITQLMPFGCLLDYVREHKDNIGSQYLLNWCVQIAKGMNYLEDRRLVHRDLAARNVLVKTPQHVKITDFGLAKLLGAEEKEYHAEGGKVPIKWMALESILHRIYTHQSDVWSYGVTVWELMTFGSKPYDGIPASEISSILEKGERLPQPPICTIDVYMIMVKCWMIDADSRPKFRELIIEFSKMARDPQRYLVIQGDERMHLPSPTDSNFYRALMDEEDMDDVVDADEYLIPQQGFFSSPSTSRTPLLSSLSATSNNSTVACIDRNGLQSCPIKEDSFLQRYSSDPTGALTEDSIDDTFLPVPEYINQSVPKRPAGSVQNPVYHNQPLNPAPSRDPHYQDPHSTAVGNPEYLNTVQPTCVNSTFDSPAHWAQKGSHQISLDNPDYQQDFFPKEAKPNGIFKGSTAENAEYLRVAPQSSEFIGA
- assay: Ba/F3 cell survival assay, wild type EGFR
- Format: cell-based
- condition.label: Cell Titer-Glo, 48 h, with 10 ng/mL EGF; Table 4; read-out: BA/F3 (wild type) IC50
quantity: GI50

compound | value.reported
C=CCOCCOc1cnccc1-c1[nH]c2c(c1Nc1cccc(Cl)c1OC)C(=O)NCC2CC=C (stereo not drawn) [Example 114] | 347 nM
COc1c(Cl)cccc1Nc1c(-c2ccncc2OCC2OCCC2(F)F)[nH]c2c1C(=O)N[C@H](C)C2 (single isomer, unassigned) [Example 72] | 628 nM
COCC(C)Oc1cnccc1-c1[nH]c2c(c1Nc1cccc(Cl)c1OC)C(=O)N[C@H](C)C2 (single isomer, unassigned) [Example 43] | 1860 nM

* * *

- target.or.test.system: EGFR with insertion SVD between D770 and N771 (mutEGFR D770_N771insSVD) (Homo sapiens, UniProt P00533, DUP768-770)
- Construct: amino acids R669 to A1210; made in house; host or cells: Sf9 insect cells (baculovirus)
- Sequence (P00533 other isoform, or with tags, fused parts or gaps DUP768-770): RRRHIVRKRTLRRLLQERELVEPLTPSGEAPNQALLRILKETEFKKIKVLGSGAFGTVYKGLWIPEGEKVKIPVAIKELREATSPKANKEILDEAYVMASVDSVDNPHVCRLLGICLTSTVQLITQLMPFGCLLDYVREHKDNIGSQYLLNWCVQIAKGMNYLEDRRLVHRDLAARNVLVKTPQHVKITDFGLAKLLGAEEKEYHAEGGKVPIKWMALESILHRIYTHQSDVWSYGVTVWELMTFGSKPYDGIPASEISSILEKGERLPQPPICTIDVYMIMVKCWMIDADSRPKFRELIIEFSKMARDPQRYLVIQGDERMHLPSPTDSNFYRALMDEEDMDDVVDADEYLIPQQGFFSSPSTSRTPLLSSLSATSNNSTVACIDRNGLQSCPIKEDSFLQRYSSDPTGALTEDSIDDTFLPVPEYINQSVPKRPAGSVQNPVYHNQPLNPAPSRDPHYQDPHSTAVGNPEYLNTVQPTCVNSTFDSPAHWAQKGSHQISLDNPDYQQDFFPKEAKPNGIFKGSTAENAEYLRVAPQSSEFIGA
- assay: Exon20-Mutant-EGFR(D770_N771insSVD) kinase assay (TR-FRET)
- Type: biochemical
- condition.label: 2 mM ATP, Table 2
quantity: mutEGFR (D770_N771insSVD) kinase assay IC50 (nM)

compound | value.reported
COc1c(F)cccc1Nc1c(-c2ccncc2OC[C@@H]2CCCO2)[nH]c2c1C(=O)NC(C)C2 (mixture of isomers) [Example 8] | 0.246
Cc1c(Cl)cccc1Nc1c(-c2ccncc2OC[C@@H]2COCCO2)[nH]c2c1C(=O)N[C@H](C)C2 | 0.184
COc1c(Cl)cccc1Nc1c(-c2ccncc2OC[C@@H]2COCCN2C)[nH]c2c1C(=O)N[C@H](C)C2 | 0.4
Cc1c(Cl)cccc1Nc1c(-c2ccncc2OCC2COCCO2)[nH]c2c1C(=O)NCC2C (centres unmarked) [Example 66] | 0.145
COc1c(Cl)cccc1Nc1c(-c2ccncc2OCC2COC(C)(C)CO2)[nH]c2c1C(=O)NC1(CC1)C2 (single isomer, unassigned) [Example 134] | 0.179
Cc1c(Cl)cccc1Nc1c(-c2ccncc2OC[C@@H]2CN(C)CCO2)[nH]c2c1C(=O)N[C@H](C)C2 | 0.115
COc1c(Cl)cccc1Nc1c(-c2ccncc2OCCC2CCCCO2)[nH]c2c1C(=O)N[C@H](C)C2 (single isomer, unassigned) [Example 87] | 0.535
Cc1c(Cl)cccc1Nc1c(-c2ccncc2OC[C@H]2CN(C)CCO2)[nH]c2c1C(=O)N[C@H](C)C2 | 0.18
COc1c(Cl)cccc1Nc1c(-c2ccncc2OC[C@@H]2COCCN2C)[nH]c2c1C(=O)NCC2CCO (single isomer, unassigned) [Example 116] | 0.276
Cc1c(Cl)cccc1Nc1c(-c2ccncc2OCC2COC(C)(C)CO2)[nH]c2c1C(=O)NCC2C (centres unmarked) | 0.329
COc1c(Cl)cccc1Nc1c(-c2ccncc2OCC2(C)CCO2)[nH]c2c1C(=O)NCC2CCO (single isomer, unassigned) [Example 21] | 0.473
COc1c(Cl)cccc1Nc1c(-c2ccncc2OC[C@@H]2COCCN2C)[nH]c2c1C(=O)NCC2CCO (single isomer, unassigned) [Example 115] | 0.456
COc1c(Cl)cccc1Nc1c(-c2ccncc2OCC2CCCCN2C)[nH]c2c1C(=O)N[C@H](C)C2 (single isomer, unassigned) [Example 85] | 0.948
COc1c(Cl)cccc1Nc1c(-c2ccncc2OCC2COCCO2)[nH]c2c1C(=O)NCC2C (centres unmarked) [Example 33] | 0.201
COc1c(Cl)cccc1Nc1c(-c2ccncc2OCC2COCCO2)[nH]c2c1C(=O)N[C@H](C)C2 (single isomer, unassigned) [Example 26] | 0.242
COc1c(Cl)cccc1Nc1c(-c2ccncc2OCC2COCCO2)[nH]c2c1C(=O)NC1(CCC1)C2 (centres unmarked) [Example 123] | 0.241
COc1c(Cl)cccc1Nc1c(-c2ccncc2OC[C@@H]2CCCO2)[nH]c2c1C(=O)NC1CCCC21 (stereo in doubt) | 0.239
COc1c(Cl)cccc1Nc1c(-c2ccncc2OCCC(C)OC)[nH]c2c1C(=O)N[C@H](C)C2 (single isomer, unassigned) [Example 121] | 0.188
COc1c(Cl)cccc1Nc1c(-c2ccncc2OC[C@@H]2CN(C)CCO2)[nH]c2c1C(=O)NC1(CC1)C2 | 0.193
COc1c(Cl)cccc1Nc1c(-c2ccncc2OCC(C)(C)OC)[nH]c2c1C(=O)NCC2CCO (single isomer, unassigned) [Example 14] | 0.139
COCC(C)Oc1cnccc1-c1[nH]c2c(c1Nc1cccc(Cl)c1C)C(=O)N[C@H](C)C2 (some centres unmarked) | 0.324
COCC(C)Oc1cnccc1-c1[nH]c2c(c1Nc1cccc(Cl)c1OC)C(=O)N[C@H](C)C2 (single isomer, unassigned) [Example 42] | 0.213
COc1c(Cl)cccc1Nc1c(-c2ccncc2OCC2(C)CCO2)[nH]c2c1C(=O)NCC2CCO (centres unmarked) [Example 19] | 0.279
COc1c(Cl)cccc1Nc1c(-c2ccncc2OCC2CCCCO2)[nH]c2c1C(=O)NCC2C (single isomer, unassigned) [Example 47] | 0.667
COc1c(Cl)cccc1Nc1c(-c2ccncc2OC[C@@H]2CCCO2)[nH]c2c1C(=O)NC(C(F)(F)F)C2 (mixture of isomers) [Example 38] | 0.188
COc1c(Cl)cccc1Nc1c(-c2ccncc2OCC2CCCCO2)[nH]c2c1C(=O)N[C@H](C)C2 (single isomer, unassigned) [Example 28] | 0.139
